Assay: In vitro microsomal stability, mouse
Assay type: in vitro ADME
Settings: mouse microsomes, 1 µM; value of 10 = low clearance, essentially below detection limit
Field: Mic CL m. Provide a value for each of the compounds that follow.
Answers are plain numbers, in µL/m/mg prot.

>  <compound>
O=C(CCc1ccc(OC(F)(F)F)cc1)N1C[C@@H]2CN(C(=O)c3ccc4[nH]nnc4c3)C[C@H]2C1 [Compound 14]

>  <reported.value>
27

$$$$

Lab note: each compound below needs its Mic CL m filled in.
1. O=C(OCc1cc(Cl)cc(Cl)c1)N1CCC2(CC1)CN(C(=O)c1ccc3[nH]c(=O)oc3c1)C2 [Compound 4]
2. O=C(OCc1cc(Cl)cc(Cl)c1)N1C[C@@H]2CN(C(=O)c3ccc4[nH]c(=O)oc4c3)C[C@@H]2C1 [Compound 5]
3. O=C(OCc1cc(Cl)cc(Cl)c1)N1CC[C@@H]2CN(C(=O)c3ccc4[nH]nnc4c3)C[C@H]2C1 (relative stereo) [Compound 6]
4. O=C(OCc1cc(Cl)cc(Cl)c1)N1C[C@@H]2CN(C(=O)c3ccc4[nH]nnc4c3)C[C@H]2C1 [Compound 7]
5. O=C(OCc1cc(Cl)cc(Cl)c1)N1CC[C@@H]2CN(C(=O)c3ccc4[nH]c(=O)oc4c3)C[C@H]2C1 (relative stereo) [Compound 2]

[149, 288, 65, 17, 74]
